- Test system: HCoV-OC43 gRNA and sgRNA
- Format: binding
- particulars: type n_48_v; 48 hpi; no-probe control on infected cells
measured.attribute: background (unweighted spectral count, no-probe control)
Enter the number alone.

IN: Write down background (unweighted spectral count, no-probe control) measured for item LRRC59 (protein, UniProt Q96AG4 1-307, looked up) Leucine-rich …: MTKAGSKGGNLRDKLDGNELDLSLSDLNEVPVKELAALPKATILDLSCNKLTTLPSDFCGLTHLVKLDLSKNKLQQLPADFGRLVNLQHLDLLNNKLVTLPVSFAQLKNLKWLDLKDNPLDPVLAKVAGDCLDEKQCKQCANKVLQHMKAVQADQERERQRRLEVEREAEKKREAKQRAKEAQERELRKREKAEEKERRRKEYDALKAAKREQEKKPKKEANQAPKSKSGSRPRKPPPRKHTRSWAVLKLLLLLLLFGVAGGLVACRVTELQQQPLCTSVNTIYDNAVQGLRRHEILQWVLQTDSQQ
OUT: 1

IN: Write down background (unweighted spectral count, no-probe control) measured for item CHTOP (protein, UniProt Q9Y3Y2 2-248, looked up) Chromatin target of PRMT1 …: AAQSAPKVVLKSTTKMSLNERFTNMLKNKQPTPVNIRASMQQQQQLASARNRRLAQQMENRPSVQAALKLKQSLKQRLGKSNIQARLGRPIGALARGAIGGRGLPIIQRGLPRGGLRGGRATRTLLRGGMSLRGQNLLRGGRAVAPRMGLRRGGVRGRGGPGRGGLGRGAMGRGGIGGRGRGMIGRGRGGFGGRGRGRGRGRGALARPVLTKEQLDNQLDAYMSKTKGHLDAELDAYMAQTDPETND
OUT: 1

IN: Write down background (unweighted spectral count, no-probe control) measured for item SSBP1 (protein, UniProt Q04837 17-148, looked up) Single-stranded DNA-binding …: ESETTTSLVLERSLNRVHLLGRVGQDPVLRQVEGKNPVTIFSLATNEMWRSGDSEVYQLGDVSQKTTWHRISVFRPGLRDVAYQYVKKGSRIYLEGKIDYGEYMDKNNVRRQATTIIADNIIFLSDQTKEKE
OUT: 3

IN: Write down background (unweighted spectral count, no-probe control) measured for item APOBEC3F (protein, UniProt Q8IUX4 1-373, looked up) DNA dC->dU-editing enzyme …: MKPHFRNTVERMYRDTFSYNFYNRPILSRRNTVWLCYEVKTKGPSRPRLDAKIFRGQVYSQPEHHAEMCFLSWFCGNQLPAYKCFQITWFVSWTPCPDCVAKLAEFLAEHPNVTLTISAARLYYYWERDYRRALCRLSQAGARVKIMDDEEFAYCWENFVYSEGQPFMPWYKFDDNYAFLHRTLKEILRNPMEAMYPHIFYFHFKNLRKAYGRNESWLCFTMEVVKHHSPVSWKRGVFRNQVDPETHCHAERCFLSWFCDDILSPNTNYEVTWYTSWSPCPECAGEVAEFLARHSNVNLTIFTARLYYFWDTDYQEGLRSLSQEGASVEIMGYKDFKYCWENFVYNDDEPFKPWKGLKYNFLFLDSKLQEILE
OUT: 1
